assay-target: P2Y purinoceptor 6 (Mus musculus)
Sequence (Q9ERK9 whole entry): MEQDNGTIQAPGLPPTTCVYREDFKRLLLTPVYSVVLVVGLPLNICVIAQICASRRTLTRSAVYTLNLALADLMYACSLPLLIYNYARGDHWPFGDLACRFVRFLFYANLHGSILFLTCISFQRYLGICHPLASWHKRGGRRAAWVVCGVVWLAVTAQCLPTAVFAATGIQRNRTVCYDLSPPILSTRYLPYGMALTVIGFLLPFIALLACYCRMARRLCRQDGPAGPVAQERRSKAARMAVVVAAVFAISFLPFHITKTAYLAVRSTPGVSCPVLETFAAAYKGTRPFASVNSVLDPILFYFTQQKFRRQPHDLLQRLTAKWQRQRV
assay: Agonist activity at P2Y6R in mouse adipose tissue
property-label: EC50

Param item = `CO/N=c1\ccn([C@]23C[C@H]2[C@@H](COP(=O)(O)OP(=O)(O)O)[C@@H](O)[C@H]3O)c(=O)[nH]1` ; retrieve measured EC50.
0.1 µM

----------
Efficacy values by entry
assay-target: P2Y purinoceptor 1 (Homo sapiens)
Sequence (P47900 whole entry): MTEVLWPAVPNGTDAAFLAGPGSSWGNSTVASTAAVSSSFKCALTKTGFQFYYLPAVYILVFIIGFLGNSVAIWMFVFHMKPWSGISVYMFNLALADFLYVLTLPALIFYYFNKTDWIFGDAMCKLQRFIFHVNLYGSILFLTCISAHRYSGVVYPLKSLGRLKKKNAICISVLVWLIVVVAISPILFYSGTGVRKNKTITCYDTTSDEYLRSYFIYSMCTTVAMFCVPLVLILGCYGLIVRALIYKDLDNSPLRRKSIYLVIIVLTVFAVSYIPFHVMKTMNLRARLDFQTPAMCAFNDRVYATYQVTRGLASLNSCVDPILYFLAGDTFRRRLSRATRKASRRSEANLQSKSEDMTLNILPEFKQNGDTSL
assay: Agonist activity at human P2Y1R in human 1321N1 cells assessed as efficacy relative to control
Type: cell-based
experimental-setup: filed as agonist
// note: answer is a bare numeric in %

Please review the entries below; each comes with its answer.
In [3]: df
Out[3]:
                              record_smiles  property_label  reading_unit  endpoint_result
0  Nc1ncnc2c1ncn2[C@H]1C[C@H](OP(=O)(O)O)[C@@]2(COP(=O)(O)O)C[C@H]12        Efficacy             %               92
1  Nc1ncnc2c1ncn2[C@H]1C[C@H](OP(=O)(O)O)[C@@H](COP(=O)(O)O)O1        Efficacy             %               77
2  CSc1nc(N)c2ncn([C@@H]3O[C@H](COP(=O)(O)OP(=O)(O)O)[C@@H](O)[C@H]3O)c2n1        Efficacy             %              100
3  CSc1nc(N)c2ncn([C@H]3[C@H](O)[C@H](O)[C@@]4(COP(=O)(O)OP(=O)(O)O)C[C@H]34)c2n1        Efficacy             %              100

For P2Y purinoceptor 1 (Homo sapiens), provide Efficacy of `Nc1ncnc2c1ncn2[C@]12C[C@H](OP(=O)(O)O)[C@@H](COP(=O)(O)O)[C@@H]1C2` please.
50

----------
assay-target: P-gp (ABCB1) (Homo sapiens)
Sequence (P08183 whole entry): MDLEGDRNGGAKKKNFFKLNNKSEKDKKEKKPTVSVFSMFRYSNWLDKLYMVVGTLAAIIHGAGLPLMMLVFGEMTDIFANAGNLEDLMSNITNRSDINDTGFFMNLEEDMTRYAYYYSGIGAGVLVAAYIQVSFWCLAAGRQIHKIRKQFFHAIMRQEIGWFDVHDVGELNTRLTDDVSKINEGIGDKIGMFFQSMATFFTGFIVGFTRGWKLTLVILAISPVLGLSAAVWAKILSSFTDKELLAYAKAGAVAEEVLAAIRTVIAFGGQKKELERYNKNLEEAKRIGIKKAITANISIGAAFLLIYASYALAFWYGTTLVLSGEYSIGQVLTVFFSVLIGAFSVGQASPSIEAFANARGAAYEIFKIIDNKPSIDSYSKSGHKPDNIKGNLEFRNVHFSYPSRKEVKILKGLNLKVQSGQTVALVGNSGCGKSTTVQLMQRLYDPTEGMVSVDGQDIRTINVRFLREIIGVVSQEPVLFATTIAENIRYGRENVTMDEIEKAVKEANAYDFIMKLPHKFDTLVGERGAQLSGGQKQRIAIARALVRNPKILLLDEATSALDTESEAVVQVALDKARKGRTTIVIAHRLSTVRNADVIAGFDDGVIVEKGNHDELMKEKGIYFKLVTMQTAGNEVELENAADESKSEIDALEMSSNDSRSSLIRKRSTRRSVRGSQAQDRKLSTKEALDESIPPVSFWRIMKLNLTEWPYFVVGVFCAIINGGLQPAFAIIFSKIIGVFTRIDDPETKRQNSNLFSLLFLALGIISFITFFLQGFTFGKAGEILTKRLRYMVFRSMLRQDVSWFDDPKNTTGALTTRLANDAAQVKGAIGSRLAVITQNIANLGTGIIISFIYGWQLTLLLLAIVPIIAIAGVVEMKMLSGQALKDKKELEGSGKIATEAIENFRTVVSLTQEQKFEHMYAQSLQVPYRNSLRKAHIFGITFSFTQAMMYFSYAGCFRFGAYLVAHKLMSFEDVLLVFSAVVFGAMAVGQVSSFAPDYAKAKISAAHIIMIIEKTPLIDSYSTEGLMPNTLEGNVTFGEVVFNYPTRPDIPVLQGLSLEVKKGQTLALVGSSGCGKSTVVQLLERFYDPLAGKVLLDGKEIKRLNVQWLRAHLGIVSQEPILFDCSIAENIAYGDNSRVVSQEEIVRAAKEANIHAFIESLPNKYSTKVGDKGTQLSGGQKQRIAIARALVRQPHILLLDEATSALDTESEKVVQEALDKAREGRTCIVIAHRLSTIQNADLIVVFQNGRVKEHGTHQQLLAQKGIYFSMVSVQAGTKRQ
assay: Inhibition of P-gp (unknown origin) ATPase activity at 10 uM relative to control
property-label: inhibition at 10 µM (%)
# number only, unit % dropped from output

Reported inhibition at 10 µM for `CNC(=O)[C@]12C[C@@H]1[C@@H](n1cnc3c(N[C@@H]4C[C@H]4c4ccc(F)c(F)c4)nc(C#Cc4ccccc4)nc31)[C@H](O)[C@@H]2O` : what is it?
53

----------
// reported Ki per item
assay-target: 5-hydroxytryptamine receptor 2B (Homo sapiens, UniProt P41595)
Sequence (P41595 whole entry): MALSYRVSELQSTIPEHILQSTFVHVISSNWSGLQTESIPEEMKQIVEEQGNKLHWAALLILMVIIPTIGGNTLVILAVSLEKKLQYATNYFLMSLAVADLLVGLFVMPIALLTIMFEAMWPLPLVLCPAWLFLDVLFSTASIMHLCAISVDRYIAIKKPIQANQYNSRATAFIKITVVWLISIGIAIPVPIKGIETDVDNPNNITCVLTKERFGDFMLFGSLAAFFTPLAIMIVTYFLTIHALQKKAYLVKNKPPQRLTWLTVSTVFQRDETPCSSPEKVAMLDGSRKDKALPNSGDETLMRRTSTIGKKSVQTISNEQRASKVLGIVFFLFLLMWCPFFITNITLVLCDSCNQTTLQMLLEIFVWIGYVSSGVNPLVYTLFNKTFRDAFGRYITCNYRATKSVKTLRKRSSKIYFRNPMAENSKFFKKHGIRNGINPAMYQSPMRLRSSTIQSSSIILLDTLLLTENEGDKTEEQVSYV
assay: Binding affinity to 5HT2B receptor (unknown origin) assessed as inhibition constant
Returns: string containing the numeric result and its unit.

                              record_smiles  endpoint_result
0  CCOC(=O)[C@]12C[C@@H]1[C@@H](n1cnc3c(NC(C4CC4)C4CC4)nc(Cl)nc31)[C@H](O)[C@@H]2O            15 nM

Notebook entry, 5-hydroxytryptamine receptor 2B (Homo sapiens, UniProt P41595) assay: Ki of `CNC(=O)[C@]12C[C@@H]1[C@@H](n1cnc3c(NC(C4CC4)C4CC4)nc(Cl)nc31)[C@H](O)[C@@H]2O` = ?
23 nM

----------
assay-target: Sodium/nucleoside cotransporter 1 (Homo sapiens, UniProt O00337)
Sequence (O00337 whole entry): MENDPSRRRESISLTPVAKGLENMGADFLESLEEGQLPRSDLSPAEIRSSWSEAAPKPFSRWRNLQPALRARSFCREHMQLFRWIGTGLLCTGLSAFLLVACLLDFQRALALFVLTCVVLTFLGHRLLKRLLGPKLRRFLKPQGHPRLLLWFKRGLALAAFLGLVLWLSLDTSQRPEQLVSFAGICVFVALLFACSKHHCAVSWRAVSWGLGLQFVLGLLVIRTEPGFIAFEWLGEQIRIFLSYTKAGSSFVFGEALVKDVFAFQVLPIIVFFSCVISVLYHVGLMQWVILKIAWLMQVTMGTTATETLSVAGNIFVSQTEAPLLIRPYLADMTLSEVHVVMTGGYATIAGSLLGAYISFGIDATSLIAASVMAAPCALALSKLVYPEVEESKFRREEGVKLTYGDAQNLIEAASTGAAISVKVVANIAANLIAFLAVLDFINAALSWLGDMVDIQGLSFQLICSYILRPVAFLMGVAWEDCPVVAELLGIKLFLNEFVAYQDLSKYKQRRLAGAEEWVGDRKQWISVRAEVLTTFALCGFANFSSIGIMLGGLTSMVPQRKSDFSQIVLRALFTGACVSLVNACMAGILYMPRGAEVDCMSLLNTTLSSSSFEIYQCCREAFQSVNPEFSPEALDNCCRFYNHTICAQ
assay: Inhibition of human CNT1
property-label: IC50 (µM)
Could you give me the number in µM? Just the number is fine.

// IC50 lookup, key: `Nc1ncnc2c1ncn2[C@]12C[C@H](O)[C@@H](CO)[C@@H]1C2`
57

Given the entry `Nc1ncnc2c1ncn2[C@H]1C[C@H](O)[C@@]2(CO)C[C@H]12` , report its measured IC50.
49

src = ChEMBL document CHEMBL5233204
